Ref: patent US12599672B2

Target: KRAS G12D (Homo sapiens, UniProt P01116, G12D)
Construct: AsPc-1-KRAS (G12D)-HiBit-KI cell (Pharmaron); host or cells: AsPc-1-KRAS (G12D)-HiBit-KI cells (HiBiT knock-in at the endogenous KRAS locus)
Sequence (P01116 1-188 isoform P01116-2 G12D): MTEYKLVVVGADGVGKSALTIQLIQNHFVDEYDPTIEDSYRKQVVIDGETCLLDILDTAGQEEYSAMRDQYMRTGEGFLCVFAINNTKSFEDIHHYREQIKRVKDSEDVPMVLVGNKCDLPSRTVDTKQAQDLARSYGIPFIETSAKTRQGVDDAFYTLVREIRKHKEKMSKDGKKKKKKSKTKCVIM
Assay: KRAS G12D HiBit assay
Type: cell-based
Conditions: AsPc-1-KRAS (G12D)-HiBit-KI cell, compound treatment for 24 hours, absolute DC50; class symbols
RECORDED ENDPOINT: DC50

>>> result("C#Cc1c(F)ccc2cc(O)cc(-c3ncc4c(N5CCC[C@@](C)(O)C5)nc(OCC5(CN6CCC7(CC6)CC(N6CCN(c8ccc9c(c8)n(C)c(=O)n9C8CCC(=O)NC8=O)CC6)C7)CC5)nc4c3F)c12 (some centres unmarked)")
"< 100 nM"
>>> result("CCc1c(F)ccc2cc(O)cc(-c3ncc4c(N5CCC[C@@](C)(O)C5)nc(OC[C@@]56CCCN5[C@H](COC(=O)NC5CCN(C7CCN(c8ccc9c(c8)n(C)c(=O)n9C8CCC(=O)NC8=O)CC7)CC5)CC6)nc4c3F)c12 (some centres unmarked)")
"< 100 nM"

* * *

Molecular target: KRAS G12D (Homo sapiens, UniProt P01116, G12D)
Construct: AsPc-1-KRAS (G12D)-HiBit-KI cell (Pharmaron); host or cells: AsPc-1-KRAS (G12D)-HiBit-KI cells (HiBiT knock-in at the endogenous KRAS locus)
Experiment: KRAS G12D HiBit assay
Assay type: cell-based
Conditions: AsPc-1-KRAS (G12D)-HiBit-KI cell, compound treatment for 24 hours; class symbols
Property: Dmax; scope: individual compounds
RECORDED ENDPOINT: Dmax

>>> result("C#Cc1c(F)ccc2cc(O)cc(-c3ncc4c(N5CCC[C@@](C)(O)C5)nc(OCC5(CN6CCN(CC7CCN(c8ccc9c(c8)n(C)c(=O)n9C8CCC(=O)NC8=O)CC7)CC6)CC5)nc4c3F)c12 (stereo partly shown)")
"> 50%"
>>> result("CCc1c(F)ccc2cccc(-c3ncc4c(N5CCC[C@@](C)(O)C5)nc(OC[C@@]56CCCN5[C@H](COC(=O)NCCOCCOc5ccc7c(c5)n(C)c(=O)n7C5CCC(=O)NC5=O)CC6)nc4c3F)c12 (stereo partly shown)")
"15 to 50%"
>>> result("C#Cc1c(F)ccc2cccc(-c3ncc4c(N5CCC[C@@](C)(O)C5)nc(OC[C@@]56CCCN5[C@H](COC(=O)N5CCC(CN7CCC(c8ccc9c(c8)n(C)c(=O)n9C8CCC(=O)NC8=O)CC7)CC5)CC6)nc4c3F)c12 (stereo partly shown)")
"> 50%"
>>> result("CCc1c(F)ccc2cc(O)cc(-c3ncc4c(N5CCC[C@@](C)(O)C5)nc(OC[C@@]56CCCN5[C@H](COC(=O)N5CCC(CN7CCC(c8ccc9c(c8F)n(C)c(=O)n9C8CCC(=O)NC8=O)CC7)CC5)CC6)nc4c3F)c12 (stereo partly shown)")
"> 50%"

* * *

Property: DC50; scope: individual molecules
Target: KRAS (Homo sapiens, UniProt P01116)
Construct: endogenous in cells; host or cells: KE39 (KRAS amplified) cells
Sequence (P01116 1-188 isoform P01116-2): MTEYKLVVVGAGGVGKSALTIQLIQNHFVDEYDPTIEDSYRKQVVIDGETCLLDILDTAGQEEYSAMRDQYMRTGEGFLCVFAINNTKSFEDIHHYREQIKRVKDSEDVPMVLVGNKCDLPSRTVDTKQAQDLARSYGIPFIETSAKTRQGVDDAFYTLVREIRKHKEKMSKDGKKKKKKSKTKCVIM
Test: KRASamp MSD assay
Type: cell-based
Details: KE39 (KRAS amplified) cells, treated with test compounds for 24 hr, MSD readout of KRAS degradation
RECORDED ENDPOINT: DC50

>>> result("CCc1c(F)ccc2cc(O)cc(-c3ncc4c(N5CCC[C@@](C)(O)C5)nc(OC[C@@]56CCCN5[C@H](CNC(=O)c5ccc(CN7CCC(c8ccc9c(c8)n(C)c(=O)n9C8CCC(=O)NC8=O)CC7)cc5)CC6)nc4c3F)c12 (stereo partly shown)")
"≥ 10 nM"
>>> result("CCc1c(F)ccc2cc(O)cc(-c3ncc4c(N5CCC[C@@](C)(O)C5)nc(OC[C@@]56CCCN5[C@H](COC(=O)N5CC7(CC(CN8CCC(c9ccc%10c(c9)n(C)c(=O)n%10C9CCC(=O)NC9=O)CC8)C7)C5)CC6)nc4c3F)c12 (stereo partly shown)")
"< 1 nM"
>>> result("CCc1c(F)ccc2cc(O)cc(-c3ncc4c(N5CCC[C@@](C)(O)C5)nc(OC[C@@]56CCCN5[C@H](COC(=O)N5CC7(CCN(CC8CCN(c9ccc%10c(c9)n(C)c(=O)n%10C9CCC(=O)NC9=O)CC8)CC7)C5)CC6)nc4c3F)c12 (stereo partly shown)")
"< 1 nM"
>>> result("CCc1c(F)ccc2cc(O)cc(-c3ncc4c(N5CCC[C@@](C)(O)C5)nc(OC[C@@]56CCCN5[C@H](COC(=O)N5CCC(OCCC#Cc7ccc8c(c7)n(C)c(=O)n8C7CCC(=O)NC7=O)CC5)CC6)nc4c3F)c12 (stereo partly shown)")
"1 to 10 nM"
>>> result("CCc1c(F)ccc2cc(O)cc(-c3ncc4c(N5CCC[C@@H](CO)C5)nc(OC[C@@]56CCCN5[C@H](COC(=O)N5CCC(CN7CCC(c8ccc9c(c8)n(C)c(=O)n9C8CCC(=O)NC8=O)CC7)CC5)CC6)nc4c3F)c12 (stereo partly shown)")
"< 1 nM"
>>> result("CCc1c(F)ccc2cc(O)cc(-c3ncc4c(N5CCCC(F)(F)C5)nc(OC[C@@]56CCCN5[C@H](COC(=O)N5CCC7(CC5)CC(N5CCC(c8ccc9c(c8)n(C)c(=O)n9C8CCC(=O)NC8=O)CC5)C7)CC6)nc4c3F)c12 (stereo partly shown)")
"< 1 nM"
>>> result("CCc1c(F)ccc2cc(O)cc(-c3ncc4c(N5CCC[C@@](C)(O)C5)nc(OC[C@@]56CCCN5[C@H](COC(=O)N5CCC(CN7CCC(c8cc9c(cc8F)n(C8CCC(=O)NC8=O)c(=O)n9C)CC7)CC5)CC6)nc4c3F)c12 (stereo partly shown)")
"< 1 nM"
>>> result("CCc1c(F)ccc2cc(O)cc(-c3ncc4c(N5CCN6CCCC6C5)nc(OC[C@@]56CCCN5[C@H](COC(=O)N5CCC7(CC5)CC(N5CCC(c8ccc9c(c8)n(C)c(=O)n9C8CCC(=O)NC8=O)CC5)C7)CC6)nc4c3F)c12 (stereo partly shown)")
"1 to 10 nM"
>>> result("CCc1c(F)ccc2cc(O)cc(-c3ncc4c(N5CCC[C@@](C)(O)C5)nc(OC[C@@]56CCCN5[C@H](CN5CCC7(CC5)CC(N5CCC(c8ccc9c(c8)n(C)c(=O)n9C8CCC(=O)NC8=O)CC5)C7)CC6)nc4c3F)c12 (stereo partly shown)")
"1 to 10 nM"
>>> result("CCc1c(F)ccc2cc(O)cc(-c3ncc4c(N5CCC[C@@](C)(O)C5)nc(OC[C@@]56CCCN5[C@H](COC(=O)N5CCC(CN7CCC(c8ccc9c(c8)n(C)c(=O)n9C8CCC(=O)NC8=O)C7)CC5)CC6)nc4c3F)c12 (stereo partly shown)")
"1 to 10 nM"
>>> result("CCc1c(F)ccc2cc(O)cc(-c3ncc4c(N5CCC[C@@](C)(O)C5)nc(OC[C@@]56CCCN5[C@H](COC(=O)N5CCC7(CC5)CC(N5CC(c8ccc9c(c8)n(C)c(=O)n9C8CCC(=O)NC8=O)C5)C7)CC6)nc4c3F)c12 (stereo partly shown)")
"1 to 10 nM"
>>> result("C#Cc1c(F)ccc2cc(O)cc(-c3ncc4c(N5CCC[C@@](C)(O)C5)nc(OC[C@@]56CCCN5[C@H](COC(=O)N5CCCC7(CN(CC8CCN(c9ccc%10c(c9)n(C)c(=O)n%10C9CCC(=O)NC9=O)CC8)C7)C5)CC6)nc4c3F)c12 (stereo partly shown)")
"≥ 10 nM"
>>> result("C#Cc1c(F)ccc2cc(O)cc(-c3ncc4c(N5CCC[C@@](C)(O)C5)nc(OC[C@]56CCCN5[C@@H](COC(=O)N5CCC(CN7CCC(c8ccc9c(c8)n(C)c(=O)n9C8CCC(=O)NC8=O)CC7)CC5)CC6)nc4c3F)c12 (stereo partly shown)")
"< 1 nM"
>>> result("CCc1c(F)ccc2cc(O)cc(-c3ncc4c(N5CCC[C@@](C)(O)C5)nc(OC[C@@]56CCCN5[C@H](COC(=O)N5CCC7(CC5)CC(CN5CCC(c8ccc9c(c8)n(C)c(=O)n9C8CCC(=O)NC8=O)CC5)C7)CC6)nc4c3F)c12 (stereo partly shown)")
"< 1 nM"
>>> result("CCc1c(F)ccc2cc(O)cc(-c3ncc4c(N5CCC[C@@](C)(O)C5)nc(OC[C@@]56CCCN5[C@H](CN5CCC(CN7CCC(c8ccc9c(c8)n(C)c(=O)n9C8CCC(=O)NC8=O)CC7)CC5)CC6)nc4c3F)c12 (stereo partly shown)")
"1 to 10 nM"
>>> result("C#Cc1c(F)ccc2cc(O)cc(-c3ncc4c(N5CCC[C@@](C)(O)C5)nc(OC[C@@]56CCCN5[C@H](COC(=O)N5CCC7(CC5)CC(N5CCC(c8ccc9c(c8)n(C)c(=O)n9C8CCC(=O)NC8=O)CC5)C7)CC6)nc4c3F)c12 (stereo partly shown)")
"< 1 nM"
